From: ChEMBL document CHEMBL2016567

# Tested on: HEK293
# Measurement Notes: Cytotoxicity against human HEK293 cells at 10 uM
# Format: cell-based
# Condition: hek293, 10 µM
Property: Activity

- Smiles Input: "CC1(C)CC(=O)C2=C(C1)N(Nc1ccccc1)C1=C(C(=O)CC(C)(C)C1)C2c1ccccc1OCc1ccccc1"
  Data Value: "Non-toxic"
- Smiles Input: "CC1(C)CC(=O)C2=C(C1)N(Nc1ccccc1)C1=C(C(=O)CC(C)(C)C1)C2c1cccc(OCc2ccccc2)c1"
  Data Value: "Non-toxic"
- Smiles Input: "CC1(C)CC(=O)C2=C(C1)N(NC(=O)c1ccccc1)C1=C(C(=O)CC(C)(C)C1)C2c1ccc(OCc2ccccc2)cc1"
  Data Value: "Non-toxic"
- Smiles Input: "CC1(C)CC(=O)C2=C(C1)N(NC(=O)c1ccncc1)C1=C(C(=O)CC(C)(C)C1)C2c1ccc(OCc2ccccc2)cc1"
  Data Value: "Non-toxic"
- Smiles Input: "CC1(C)CC(=O)C2=C(C1)N(Nc1ccccc1)C1=C(C(=O)CC(C)(C)C1)C2c1ccc(OCc2ccccc2)cc1"
  Data Value: "Non-toxic"

Shift focus to the following entry.
Prompt: Consider the compound `CC1(C)CC(=O)C2=C(C1)N(Nc1ccc([N+](=O)[O-])cc1[N+](=O)[O-])C1=C(C(=O)CC(C)(C)C1)C2c1ccc(OCc2ccccc2)cc1` . State its measured Activity.
Completion: Non-toxic

###

# Test system: HEK293
# Measurement Notes: Cytotoxicity against human HEK293 cells at 10 uM
# Format: cell-based
# Condition: hek293, 10 µM
Property: Activity

The cases that follow already have their Activity on record.
- Smiles Input: "CC1(C)CC(=O)C2=C(C1)N(NC(=O)c1ccncc1)C1=C(C(=O)CC(C)(C)C1)C2c1cccc(OCc2ccccc2)c1"
  Activity: "Non-toxic"
- Smiles Input: "COc1ccc(C(=O)NN2C3=C(C(=O)CC(C)(C)C3)C(c3ccc(OCc4ccccc4)cc3)C3=C2CC(C)(C)CC3=O)c(OC)n1"
  Activity: "Non-toxic"
- Smiles Input: "Cc1ccc(C(=O)Nc2ccc(S(=O)(=O)O)c3cc(S(=O)(=O)O)cc(S(=O)(=O)O)c23)cc1NC(=O)c1cccc(NC(=O)Nc2cccc(C(=O)Nc3cc(C(=O)Nc4ccc(S(=O)(=O)O)c5cc(S(=O)(=O)O)cc(S(=O)(=O)O)c45)ccc3C)c2)c1"
  Activity: "Non-toxic"
- Smiles Input: "CC1(C)CC(=O)C2=C(C1)N(Nc1ccc([N+](=O)[O-])cc1[N+](=O)[O-])C1=C(C(=O)CC(C)(C)C1)C2c1ccccc1OCc1ccccc1"
  Activity: "Non-toxic"
- Smiles Input: "CC1(C)CC(=O)C2=C(C1)N(NC(=O)c1ccncc1)C1=C(C(=O)CC(C)(C)C1)C2c1ccccc1OCc1ccccc1"
  Activity: "Non-toxic"

Here is another molecule to look at.
Prompt: Note Activity for the molecule shown: `COc1cccc2c1C(=O)c1c(O)c3c(c(O)c1C2=O)C[C@@](O)(C(=O)CO)C[C@@H]3O[C@H]1C[C@H](N)[C@H](O)[C@H](C)O1`
Completion: Non-toxic

###

# Measured On: NAD-dependent protein deacetylase sirtuin-1 (Homo sapiens)
# Sequence (whole entry): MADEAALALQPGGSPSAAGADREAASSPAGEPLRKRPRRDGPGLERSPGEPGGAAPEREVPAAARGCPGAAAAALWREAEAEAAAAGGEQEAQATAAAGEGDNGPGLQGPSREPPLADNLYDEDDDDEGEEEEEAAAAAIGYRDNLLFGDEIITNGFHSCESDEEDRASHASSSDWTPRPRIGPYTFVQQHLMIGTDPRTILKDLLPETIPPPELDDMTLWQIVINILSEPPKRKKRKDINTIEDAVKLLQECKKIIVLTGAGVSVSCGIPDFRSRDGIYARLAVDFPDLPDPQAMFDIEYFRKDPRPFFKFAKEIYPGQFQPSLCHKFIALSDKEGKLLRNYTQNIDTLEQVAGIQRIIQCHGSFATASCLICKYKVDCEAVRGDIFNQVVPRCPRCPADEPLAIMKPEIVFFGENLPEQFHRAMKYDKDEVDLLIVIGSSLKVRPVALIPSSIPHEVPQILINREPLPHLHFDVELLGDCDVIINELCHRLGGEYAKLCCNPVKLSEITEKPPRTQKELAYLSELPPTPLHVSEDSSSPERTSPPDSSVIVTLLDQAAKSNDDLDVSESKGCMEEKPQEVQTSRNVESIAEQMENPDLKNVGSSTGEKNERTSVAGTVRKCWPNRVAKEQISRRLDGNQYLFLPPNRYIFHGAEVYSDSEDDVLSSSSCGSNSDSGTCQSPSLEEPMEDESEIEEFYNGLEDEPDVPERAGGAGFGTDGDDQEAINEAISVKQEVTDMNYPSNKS
# Measurement Notes: Inhibition of human SIRT1 using Fluor-de-Lys as substrate at 50 uM
For each of the molecules below, state its inhibition.

- Smiles Input: "CC1(C)CC(=O)C2=C(C1)N(Nc1ccccc1)C1=C(C(=O)CC(C)(C)C1)C2c1ccccc1OCc1ccccc1"
  inhibition: "82.1%"
- Smiles Input: "COc1ccc(C(=O)NN2C3=C(C(=O)CC(C)(C)C3)C(c3cccc(OCc4ccccc4)c3)C3=C2CC(C)(C)CC3=O)c(OC)n1"
  inhibition: "35.6%"
- Smiles Input: "CC1(C)CC(=O)C2=C(C1)N(Nc1ccccc1)C1=C(C(=O)CC(C)(C)C1)C2c1cccc(OCc2ccccc2)c1"
  inhibition: "51.4%"
- Smiles Input: "CC1(C)CC(=O)C2=C(C1)N(Nc1ccccc1)C1=C(C(=O)CC(C)(C)C1)C2c1ccc(OCc2ccccc2)cc1"
  inhibition: "55.2%"
- Smiles Input: "CC1(C)CC(=O)C2=C(C1)N(NC(=O)c1ccc([N+](=O)[O-])cc1)C1=C(C(=O)CC(C)(C)C1)C2c1ccccc1OCc1ccccc1"
  inhibition: "39%"
- Smiles Input: "CC1(C)CC(=O)C2=C(C1)N(NC(=O)c1ccncc1)C1=C(C(=O)CC(C)(C)C1)C2c1cccc(OCc2ccccc2)c1"
  inhibition: "53.7%"
- Smiles Input: "COc1ccc(C(=O)NN2C3=C(C(=O)CC(C)(C)C3)C(c3ccccc3OCc3ccccc3)C3=C2CC(C)(C)CC3=O)c(OC)n1"
  inhibition: "35.2%"
- Smiles Input: "CC1(C)CC(=O)C2=C(C1)N(NC(=O)c1ccc(Cl)cc1Cl)C1=C(C(=O)CC(C)(C)C1)C2c1cccc(OCc2ccccc2)c1"
  inhibition: "4.7%"

Hi, could you look up inhibition for each item in my list?
1. CC1(C)CC(=O)C2=C(C1)N(NC(=O)c1ccc([N+](=O)[O-])cc1)C1=C(C(=O)CC(C)(C)C1)C2c1ccc(OCc2ccccc2)cc1
2. CC1(C)CC(=O)C2=C(C1)N(NC(=O)c1ccncc1)C1=C(C(=O)CC(C)(C)C1)C2c1ccccc1OCc1ccccc1
3. CC1(C)CC(=O)C2=C(C1)N(Nc1ccc([N+](=O)[O-])cc1[N+](=O)[O-])C1=C(C(=O)CC(C)(C)C1)C2c1cccc(OCc2ccccc2)c1
4. COc1ccc(C(=O)NN2C3=C(C(=O)CC(C)(C)C3)C(c3ccc(OCc4ccccc4)cc3)C3=C2CC(C)(C)CC3=O)c(OC)n1
5. CC1(C)CC(=O)C2=C(C1)N(NC(=O)c1ccc(Cl)cc1Cl)C1=C(C(=O)CC(C)(C)C1)C2c1ccc(OCc2ccccc2)cc1
6. CC1(C)CC(=O)C2=C(C1)N(Nc1ccc([N+](=O)[O-])cc1[N+](=O)[O-])C1=C(C(=O)CC(C)(C)C1)C2c1ccccc1OCc1ccccc1
7. CC1(C)CC(=O)C2=C(C1)N(NC(=O)c1ccccc1)C1=C(C(=O)CC(C)(C)C1)C2c1ccccc1OCc1ccccc1
8. CC1(C)CC(=O)C2=C(C1)N(NC(=O)c1ccc([N+](=O)[O-])cc1)C1=C(C(=O)CC(C)(C)C1)C2c1cccc(OCc2ccccc2)c1

Completion:
1. 35.6%
2. 72.6%
3. 33.2%
4. 55.1%
5. 3.6%
6. 83.2%
7. 39.7%
8. 33.6%

For the 3 molecules below, give their inhibition values.
1. CC1(C)CC(=O)C2=C(C1)N(NC(=O)c1ccccc1)C1=C(C(=O)CC(C)(C)C1)C2c1cccc(OCc2ccccc2)c1
2. CC1(C)CC(=O)C2=C(C1)N(Nc1ccc([N+](=O)[O-])cc1[N+](=O)[O-])C1=C(C(=O)CC(C)(C)C1)C2c1ccc(OCc2ccccc2)cc1
3. Cc1ccc(C(=O)Nc2ccc(S(=O)(=O)O)c3cc(S(=O)(=O)O)cc(S(=O)(=O)O)c23)cc1NC(=O)c1cccc(NC(=O)Nc2cccc(C(=O)Nc3cc(C(=O)Nc4ccc(S(=O)(=O)O)c5cc(S(=O)(=O)O)cc(S(=O)(=O)O)c45)ccc3C)c2)c1

Completion:
21.5%
54.8%
53.9%

Prompt: Kindly indicate its recorded inhibition. Item: `CC1(C)CC(=O)C2=C(C1)N(NC(=O)c1ccccc1)C1=C(C(=O)CC(C)(C)C1)C2c1ccc(OCc2ccccc2)cc1`
Completion: 52%
